Could you please report measured Liver Microsomal Stability (ER) Mouse for the items listed next?
- Type: in vitro ADME
- condition_description: extraction ratio, compound at 1 uM, mouse liver microsomes 0.5 mg/mL
Answers are plain numbers.

Hello, I would appreciate it if you could give Liver Microsomal Stability (ER) Mouse for each entry below.
1. CC(C)C[C@H](NC(=O)C(F)(F)F)C(=O)N1C[C@H]2[C@@H]([C@H]1C(=O)N[C@H](C#N)C[C@@H]1CCNC1=O)C2(C)C
2. CC1(C)[C@@H]2[C@@H](C(=O)N[C@H](C#N)C[C@@H]3CCNC3=O)N(C(=O)[C@@H](NC(=O)C(F)F)C3CC3)C[C@@H]21

Marked response:
[0.44, 0.18]

Hello, I would appreciate it if you could give Liver Microsomal Stability (ER) Mouse for each entry below.
1. C=CC(=O)N[C@H](C[C@@H]1CCNC1=O)NC(=O)[C@H](CC1CCCCC1)NC(=O)OCc1ccccc1
2. CC(C)C[C@H](NC(=O)c1cc2ccccc2[nH]1)C(=O)N1C[C@H]2[C@@H]([C@H]1C(=O)N[C@H](C#N)C(C)(C)C)C2(C)C
3. CC(C)C[C@H](NC(=O)C(F)F)C(=O)N1C[C@H]2[C@@H]([C@H]1C(=O)N[C@H](C#N)C[C@@H]1CCNC1=O)C2(C)C
4. COc1cccc2[nH]c(C(=O)N[C@@H](CC(C)C)C(=O)N[C@H](C=O)C[C@@H]3CCNC3=O)cc12

Marked response:
1. 0.43
2. 0.55
3. 0.35
4. 0.19
